SYSTEM_UNDER_TEST: human JAK3 (a.a. 781-1124) (Homo sapiens, UniProt P52333)
Construct: JAK3 (a.a. 781-1124); His tag (N); made in house; host or cells: insect cells (baculovirus)
Sequence (P52333 781-1124): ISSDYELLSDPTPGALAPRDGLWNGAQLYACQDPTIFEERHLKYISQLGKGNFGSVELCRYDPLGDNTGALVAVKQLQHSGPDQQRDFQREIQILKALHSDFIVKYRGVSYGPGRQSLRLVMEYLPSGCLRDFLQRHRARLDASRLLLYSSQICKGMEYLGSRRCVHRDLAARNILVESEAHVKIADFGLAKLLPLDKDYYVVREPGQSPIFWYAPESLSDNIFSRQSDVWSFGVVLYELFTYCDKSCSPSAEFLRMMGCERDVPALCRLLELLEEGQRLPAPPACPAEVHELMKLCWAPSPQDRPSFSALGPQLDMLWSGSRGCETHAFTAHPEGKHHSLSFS
EXPERIMENTAL_PROTOCOL: In vitro JAK kinase assay (HTRF, phosphorylation of a biotinylated peptide), JAK3
Format: biochemical
MEASUREMENT_CONDITIONS: Table B1
Structures can show the parent of a compound that is named as a salt.
QUANTITY_NAME: IC50 (nM)

1 = O=C(Nc1ccc2cc1CCc1cccc(c1)Nc1ncc(Cl)c(n1)N2)c1ccccc1Cl [Example B41, hydrochloride]
2 = CCc1cccc(NC(=O)Nc2ccc3cc2CCc2cccc(c2)Nc2ncc(Cl)c(n2)N3)c1 [Example B99, trifluoroacetate]
stdin: Lab note: check whether 1 or 2 has the lower measured IC50. # respond with the chosen item's label
stdout: 1
(1: 6.5 nM, 2: 151 nM)

a = Cc1cnc(NC(=O)Nc2ccc3cc2CCc2cccc(c2)Nc2ncc(Cl)c(n2)N3)s1 [Example B248, trifluoroacetate]
b = O=S(=O)(Nc1ccc2cc1CCc1cccc(c1)Nc1ncc(Cl)c(n1)N2)C1CC1 [Example B158, trifluoroacetate]
c = O=S(=O)(Nc1ccc2cc1CCc1cccc(c1)Nc1ncc(Cl)c(n1)N2)c1ccccc1 [Example B136, trifluoroacetate]
d = COCC(=O)Nc1ccc2cc1CCc1cccc(c1)Nc1ncc(Cl)c(n1)N2 [Example B28, trifluoroacetate]
e = NS(=O)(=O)N1CC[C@@H](NC(=O)Nc2ccc3cc2CCc2cccc(c2)Nc2ncc(Cl)c(n2)N3)C1 [Example B179, trifluoroacetate]
stdin: Arrange the 5 compounds by rising IC50, starting with the smallest. Respond with an ordered listing of the labels, as requested.
stdout: b, e, c, d, a
(b: 0.64 nM, e: 1.3 nM, c: 2.3 nM, d: 10 nM, a: 46 nM)

a = CCC(C)C(=O)Nc1ccc2cc1CCc1cccc(c1)Nc1ncc(Cl)c(n1)N2 (centres unmarked) [Example B61, trifluoroacetate]
b = O=C(Nc1ccc2cc1CCc1cccc(c1)Nc1ncc(Cl)c(n1)N2)N[C@@H]1CCN(C(=O)c2ccccc2)C1 [Example B176, trifluoroacetate]
stdin: Lab note: check whether a or b has the lower measured IC50. # respond with the chosen item's label
stdout: a
(a: 3 nM, b: 60 nM)

P = COc1ccc(C(=O)Nc2ccc3cc2CCc2cccc(c2)Nc2ncc(Cl)c(n2)N3)cc1 [Example B67, trifluoroacetate]
Q = CC(C)(C)c1ccccc1NC(=O)Nc1ccc2cc1CCc1cccc(c1)Nc1ncc(Cl)c(n1)N2 [Example B110, trifluoroacetate]
stdin: Between P and Q , whose measured IC50 reads higher? # respond with the chosen item's label
stdout: Q
(Q: 92 nM, P: 15 nM)

###

SYSTEM_UNDER_TEST: human JAK1 (a.a. 837-1142) (Homo sapiens)
Construct: human JAK1 (a.a. 837-1142); His tag (N); made in house; host or cells: insect cells (baculovirus)
Sequence (P23458 849-1154): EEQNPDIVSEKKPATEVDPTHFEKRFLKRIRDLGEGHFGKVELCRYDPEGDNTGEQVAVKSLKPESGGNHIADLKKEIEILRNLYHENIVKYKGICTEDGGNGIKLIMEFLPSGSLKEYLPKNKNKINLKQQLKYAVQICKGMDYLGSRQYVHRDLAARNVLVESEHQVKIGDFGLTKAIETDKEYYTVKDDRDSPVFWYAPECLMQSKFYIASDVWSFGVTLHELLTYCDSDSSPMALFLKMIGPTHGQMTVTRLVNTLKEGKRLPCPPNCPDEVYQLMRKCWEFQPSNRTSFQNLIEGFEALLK
EXPERIMENTAL_PROTOCOL: In vitro JAK kinase assay (HTRF, phosphorylation of a biotinylated peptide), JAK1
Assay type: biochemical
MEASUREMENT_CONDITIONS: read-out: JAK1 IC50
Structures can show the parent of a compound that is named as a salt.
QUANTITY_NAME: IC50 (nM)

COMPOUND | NUMERIC_READOUT
Cc1cc(C(=O)N2CCC(CC(=O)Nc3ccc4cc3CCc3cncc(c3)Nc3ncc(C)c(n3)N4)CC2)no1 [Example C51, bis(trifluoroacetate)] | 13

I = Cc1nc(C)c(CC(=O)Nc2ccc3cc2CCc2cccc(c2)Nc2ncc(Cl)c(n2)N3)s1 [Example C43, trifluoroacetate]
II = O=C(Cc1noc2ccccc12)Nc1ccc2cc1CCc1cccc(c1)Nc1ncc(Cl)c(n1)N2 [Example C45, trifluoroacetate]
stdin: Between I and II , whose measured IC50 reads higher? # respond with the chosen item's label
stdout: II

1 = Fc1cnc2nc1Nc1cccc(c1)CCc1cncc(c1)N2 [Example C21, bis(trifluoroacetate)]
2 = O=C(Cc1coc2ccccc12)Nc1ccc2cc1CCc1cccc(c1)Nc1ncc(Cl)c(n1)N2 [Example C47, trifluoroacetate]
stdin: Between 1 and 2 , whose measured IC50 reads higher? # respond with the chosen item's label
stdout: 2

###

SYSTEM_UNDER_TEST: human JAK3 (a.a. 781-1124) (Homo sapiens, UniProt P52333)
Construct: JAK3 (a.a. 781-1124); His tag (N); made in house; host or cells: insect cells (baculovirus)
EXPERIMENTAL_PROTOCOL: In vitro JAK kinase assay (HTRF, phosphorylation of a biotinylated peptide), JAK3
Assay type: biochemical
MEASUREMENT_CONDITIONS: Table B1
Counter-ions that a name gives are not always drawn.
QUANTITY_NAME: IC50 (nM)

COMPOUND | IC50 [nM]
CN1CCCC1CCNC(=O)Nc1ccc2cc1CCc1cccc(c1)Nc1ncc(Cl)c(n1)N2 (stereo not drawn) [Example B256, bis(trifluoroacetate)] | 77

a = CCOc1ccccc1NC(=O)Nc1ccc2cc1CCc1cccc(c1)Nc1ncc(Cl)c(n1)N2 [Example B106, trifluoroacetate]
b = O=C(Nc1ccc2cc1CCc1cccc(c1)Nc1ncc(Cl)c(n1)N2)c1ccccc1F [Example B38, trifluoroacetate]
c = O=C(Nc1ccc2cc1CCc1cccc(c1)Nc1ncc(Cl)c(n1)N2)c1cnccn1 [Example B44, bis(trifluoroacetate)]
stdin: Thanks in advance: please rank these 3 entries by IC50, highest to lowest. Respond with an ordered listing of the labels, as requested.
stdout: a, c, b

###

SYSTEM_UNDER_TEST: TYK2 (Homo sapiens)
Sequence (P29597 whole entry): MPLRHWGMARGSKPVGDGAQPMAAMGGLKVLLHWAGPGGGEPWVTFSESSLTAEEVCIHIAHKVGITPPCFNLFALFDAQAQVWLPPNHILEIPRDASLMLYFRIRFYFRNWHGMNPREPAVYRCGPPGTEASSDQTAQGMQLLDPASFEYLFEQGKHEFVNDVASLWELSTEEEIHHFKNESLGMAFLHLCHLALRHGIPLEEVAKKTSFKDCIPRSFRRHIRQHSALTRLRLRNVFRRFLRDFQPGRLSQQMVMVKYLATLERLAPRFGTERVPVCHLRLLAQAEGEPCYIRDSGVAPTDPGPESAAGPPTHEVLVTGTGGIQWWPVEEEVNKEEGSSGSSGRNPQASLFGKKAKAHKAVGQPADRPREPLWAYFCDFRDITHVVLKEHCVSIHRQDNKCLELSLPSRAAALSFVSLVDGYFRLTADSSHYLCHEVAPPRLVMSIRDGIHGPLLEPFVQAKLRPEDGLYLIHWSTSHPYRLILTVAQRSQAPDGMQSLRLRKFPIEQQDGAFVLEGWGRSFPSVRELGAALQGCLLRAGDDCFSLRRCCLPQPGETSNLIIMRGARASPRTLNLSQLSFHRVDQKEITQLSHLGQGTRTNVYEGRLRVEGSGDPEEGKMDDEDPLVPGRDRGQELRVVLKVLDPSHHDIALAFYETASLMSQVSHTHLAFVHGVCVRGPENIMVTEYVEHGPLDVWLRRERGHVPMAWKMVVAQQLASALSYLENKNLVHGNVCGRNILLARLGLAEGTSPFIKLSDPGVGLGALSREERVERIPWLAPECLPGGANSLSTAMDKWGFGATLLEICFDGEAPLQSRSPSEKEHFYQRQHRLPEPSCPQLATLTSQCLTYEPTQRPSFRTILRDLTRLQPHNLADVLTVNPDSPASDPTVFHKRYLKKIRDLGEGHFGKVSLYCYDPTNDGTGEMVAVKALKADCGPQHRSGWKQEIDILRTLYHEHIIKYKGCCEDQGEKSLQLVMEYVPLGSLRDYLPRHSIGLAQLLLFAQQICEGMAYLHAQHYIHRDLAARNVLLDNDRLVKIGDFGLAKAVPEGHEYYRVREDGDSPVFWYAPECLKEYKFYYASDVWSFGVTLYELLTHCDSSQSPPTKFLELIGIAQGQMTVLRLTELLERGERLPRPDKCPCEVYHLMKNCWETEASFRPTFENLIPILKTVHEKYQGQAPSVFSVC
EXPERIMENTAL_PROTOCOL: TYK2 kinase inhibition (Table A1)
Type: biochemical
MEASUREMENT_CONDITIONS: Table B1
Counter-ions that a name gives are not always drawn.
QUANTITY_NAME: IC50 (nM)

A = O=C(Nc1ccc2cc1CCc1cccc(c1)Nc1ncc(Cl)c(n1)N2)C1CCCCC1 [Example B63, trifluoroacetate]
B = Cc1ccc(NC(=O)Nc2ccc3cc2CCc2cccc(c2)Nc2ncc(Cl)c(n2)N3)cc1 [Example B92, trifluoroacetate]
C = O=C(NCc1ccco1)Nc1ccc2cc1CCc1cccc(c1)Nc1ncc(Cl)c(n1)N2 [Example B117, trifluoroacetate]
D = Cc1ncoc1C(=O)Nc1cc2cc(c1)Nc1nc(ncc1Cl)Nc1cccc(c1)CC2 [Example B210, trifluoroacetate]
E = NS(=O)(=O)N1CC[C@@H](NC(=O)Nc2ccc3cc2CCc2cccc(c2)Nc2ncc(Cl)c(n2)N3)C1 [Example B179, trifluoroacetate]
stdin: Rank the listed molecules by IC50, largest first. Respond with an ordered listing of the labels, as requested.
stdout: D, A, B, C, E

P = Nc1cc2cc(c1)Nc1nc(ncc1Cl)Nc1cccc(c1)CC2 [Example B21, bis(trifluoroacetate)]
Q = CCCc1ccccc1NC(=O)Nc1ccc2cc1CCc1cccc(c1)Nc1ncc(Cl)c(n1)N2 [Example B105, trifluoroacetate]
stdin: Lab note: check whether P or Q has the lower measured IC50. # respond with the chosen item's label
stdout: Q
(Q: 13 nM, P: 32 nM)

###

SYSTEM_UNDER_TEST: human JAK3 (a.a. 781-1124) (Homo sapiens)
Construct: JAK3 (a.a. 781-1124); His tag (N); made in house; host or cells: insect cells (baculovirus)
EXPERIMENTAL_PROTOCOL: In vitro JAK kinase assay (HTRF, phosphorylation of a biotinylated peptide), JAK3
Format: biochemical
MEASUREMENT_CONDITIONS: Table B1
pIC50: −log10 of the molar value. Counter-ions that a name gives are not always drawn.
QUANTITY_NAME: pIC50

MOLECULE | pIC50
Nc1ccc2cc1CCc1cccc(c1)Nc1ncc(Cl)c(n1)N2 [Example B19, dihydrochloride] | 8.12

A = O=C(Nc1ccc2cc1CCc1cccc(c1)Nc1ncc(Cl)c(n1)N2)C1CCCCC1 [Example B63, trifluoroacetate]
B = O=C(Nc1ccc2cc1CCc1cccc(c1)Nc1ncc(Cl)c(n1)N2)c1cnn2ccccc12 [Example B80, bis(trifluoroacetate)]
stdin: Between A and B , whose measured pIC50 reads higher? # respond with the chosen item's label
stdout: B
(B: 8.77, A: 7.25)

###

SYSTEM_UNDER_TEST: human JAK2 (a.a. 828-1132) (Homo sapiens)
Construct: JAK2 (a.a. 828-1132); His tag (N); made in house; host or cells: insect cells (baculovirus)
Sequence (O60674 828-1132): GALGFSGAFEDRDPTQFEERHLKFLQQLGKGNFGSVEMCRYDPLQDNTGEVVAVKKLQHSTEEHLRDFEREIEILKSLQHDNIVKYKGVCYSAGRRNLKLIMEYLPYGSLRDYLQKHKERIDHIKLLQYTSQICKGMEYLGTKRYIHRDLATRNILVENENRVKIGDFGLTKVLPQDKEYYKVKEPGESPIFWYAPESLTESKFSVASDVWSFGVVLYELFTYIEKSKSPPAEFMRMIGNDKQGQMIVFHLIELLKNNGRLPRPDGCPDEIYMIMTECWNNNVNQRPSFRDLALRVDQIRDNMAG
EXPERIMENTAL_PROTOCOL: In vitro JAK kinase assay (HTRF, phosphorylation of a biotinylated peptide), JAK2
Format: biochemical
MEASUREMENT_CONDITIONS: Table B1
pIC50: −log10 of the molar value. Where a name gives a salt, the structure may show the parent alone.
QUANTITY_NAME: pIC50

Consider the worked cases shown below.
MOLECULE | pIC50
COc1ccc(N2CCN(C(=O)Nc3ccc4cc3CCc3cncc(c3)Nc3ncc(Cl)c(n3)N4)CC2)cc1 [Example B299, tris(trifluoroacetate)] | 6.74
O=C(Nc1cc2cc(c1)Nc1nc(ncc1Cl)Nc1cccc(c1)CC2)C1CCC1 [Example B211, trifluoroacetate] | 7.70
N#Cc1ccc(N2CCN(C(=O)Nc3ccc4cc3CCc3cncc(c3)Nc3ncc(Cl)c(n3)N4)CC2)nc1 [Example B310, tris(trifluoroacetate)] | 7.21

I = N#Cc1cccc(NC(=O)Nc2ccc3cc2CCc2cccc(c2)Nc2ncc(Cl)c(n2)N3)c1 [Example B95, trifluoroacetate]
II = N#Cc1ccccc1S(=O)(=O)Nc1cc2cc(c1)Nc1nc(ncc1Cl)Nc1cccc(c1)CC2 [Example B216, trifluoroacetate]
III = O=C(Nc1ccc2cc1CCc1cncc(c1)Nc1ncc(Cl)c(n1)N2)N1CCC(c2cnccn2)C1 (centres unmarked) [Example B313, (trifluoroacetate)]
IV = OCc1cc2cc(c1)Nc1nc(ncc1Cl)Nc1cccc(c1)CC2 [Example B24, trifluoroacetate]
stdin: Arrange the 4 molecules by rising pIC50, starting with the smallest. Respond with an ordered listing of the labels, as requested.
stdout: III, II, I, IV

a = Cc1ncoc1C(=O)Nc1ccc2cc1CCc1cccc(c1)Nc1ncc(Cl)c(n1)N2 [Example B78, trifluoroacetate]
b = Cc1ccc(C(=O)Nc2ccc3cc2CCc2cccc(c2)Nc2ncc(Cl)c(n2)N3)cc1 [Example B47, trifluoroacetate]
stdin: Lab note: check whether a or b has the lower measured pIC50. # respond with the chosen item's label
stdout: a

1 = Cc1ncoc1C(=O)Nc1cc2cc(c1)Nc1nc(ncc1Cl)Nc1cccc(c1)CC2 [Example B210, trifluoroacetate]
2 = CC(C)(C)NC(=O)Nc1ccc2cc1CCc1cccc(c1)Nc1ncc(Cl)c(n1)N2 [Example B87, trifluoroacetate]
3 = Clc1cnc2nc1Nc1ccc(-c3cn[nH]c3)c(c1)CCc1cncc(c1)N2 [Example B350, tris(trifluoroacetate)]
stdin: Arrange the 3 molecules by rising pIC50, starting with the smallest. Respond with an ordered listing of the labels, as requested.
stdout: 3, 1, 2
(3: 7.18, 1: 7.38, 2: 8.35)
